test system: DU-145; experiment: Growth inhibition of human DU145 cells at 10^-5 M incubated for 48 hrs by sulforhodamine B assay; assay type: functional; details: DU-145, 48 h, read-out: GI
observed-property: inhibition of growth at 10 µM (%)
One number for each entry, in %.

Here are 3 molecules together with their reported answers.
* O=[N+]([O-])c1cccc(C2c3sc4ccc(Cl)cc4c3N=C3NN=NN32)c1 (stereo not given) | 22
* O=[N+]([O-])c1cccc(C2c3sc4ccc(Cl)cc4c3N=C3NN=C(c4cccc(F)c4)N32)c1 (stereo not given) | 11.3
* N=C1Nc2c(sc3ccc(Cl)cc23)C(c2cccc(Br)c2)N1 (stereo not given) | -10.7

Batch lookup, inhibition of growth at 10 µM per entry.
1. NC(=O)CSC1=Nc2c(sc3ccc(Cl)cc23)C(c2cccc([N+](=O)[O-])c2)N1 (stereo not given)
2. N=C1Nc2c(sc3ccc(Cl)cc23)C(c2ccccc2O)N1 (stereo not given)
3. O=C1CSC2=Nc3c(sc4ccc(Cl)cc34)C(c3ccc4ccccc4c3)N12 (stereo not given)

[-14.8, 23.3, -8.09]

###

test system: OVCAR-8; test: Growth inhibition of human OVCAR8 cells at 10^-5 M incubated for 48 hrs by sulforhodamine B assay; format: functional; details: OVCAR-8, 48 h, read-out: GI
Please go through the items and note down their inhibition of growth at 10 µM.
Give bare numbers, in %.

Batch lookup, inhibition of growth at 10 µM per entry.
1. O=[N+]([O-])c1cccc(C2c3sc4ccc(Cl)cc4c3N=C3NN=NN32)c1 (stereo unspecified)
2. O=C1/C(=C\c2ccc3ccccc3c2)Sc2ccc(Cl)cc21
3. NC(=O)CSC1=Nc2c(sc3ccc(Cl)cc23)C(c2cccc([N+](=O)[O-])c2)N1 (stereo unspecified)

1: -4.72; 2: -4.13; 3: -3.56

###

test system: IGROV-1; assay: Growth inhibition of human IGROV1 cells at 10^-5 M incubated for 48 hrs by sulforhodamine B assay; format: functional; conditions: IGROV-1, 48 h, read-out: GI
Param threshold (20%) applies to inhibition of growth at 10 µM; output t when value >= threshold, f when value < threshold.

A selection of reference data follows.
• Oc1ccccc1C1NC(=S)Nc2c1sc1ccc(Cl)cc21 (stereo not given) = f
• NC(=O)CSC1=Nc2c(sc3ccc(Cl)cc23)C(c2cccc([N+](=O)[O-])c2)N1 (stereo not given) = t
• Cc1cc(C)n(C2=Nc3c(sc4ccc(Cl)cc34)C(c3cccc([N+](=O)[O-])c3)N2)n1 (stereo not given) = t
• O=C1/C(=C\c2cccc(Br)c2)Sc2ccc(Cl)cc21 = f
• O=C1Nc2c(sc3ccc(Cl)cc23)C(c2cccc(Br)c2)N1 (stereo not given) = t

Tell me whether inhibition of growth at 10 µM is at least 20% here: S=C1Nc2c(sc3ccc(Cl)cc23)C(c2ccc3ccccc3c2)N1 (stereo not given) f

Tell me whether inhibition of growth at 10 µM is at least 20% here: O=[N+]([O-])c1cccc(C2c3sc4ccc(Cl)cc4c3N=C3NN=CN32)c1 (stereo not given) f

Tell me whether inhibition of growth at 10 µM is at least 20% here: O=[N+]([O-])c1cccc(C2c3sc4ccc(Cl)cc4c3N=C3NN=C(c4cccc(F)c4)N32)c1 (stereo not given) t

Tell me whether inhibition of growth at 10 µM is at least 20% here: N=C1Nc2c(sc3ccc(Cl)cc23)C(c2ccc3ccccc3c2)N1 (stereo not given) f

Tell me whether inhibition of growth at 10 µM is at least 20% here: NNC1=Nc2c(sc3ccc(Cl)cc23)C(c2cccc([N+](=O)[O-])c2)N1 (stereo not given) t

###

test system: UO-31; assay: Cytotoxicity against human UO31 cells assessed as reduction in cell viability after 24 hrs by MTT assay; type: functional, cell-based; conditions: UO-31, 24 h
Label class 1 when IC50 is strictly below 30 µg/mL; at or above that, label class 0.

A selection of reference data follows.
- O=[N+]([O-])c1cccc(C2c3sc4ccc(Cl)cc4c3N=C3NN=CN32)c1 (stereo not drawn): class 1
- CCOC(=O)CSC1=Nc2c(sc3ccc(Cl)cc23)C(c2cccc([N+](=O)[O-])c2)N1 (stereo not drawn): class 1
- O=C1CSC2=Nc3c(sc4ccc(Cl)cc34)C(c3ccc4ccccc4c3)N12 (stereo not drawn): class 1
- S=C1Nc2c(sc3ccc(Cl)cc23)C(c2ccc3ccccc3c2)N1 (stereo not drawn): class 1
- O=[N+]([O-])c1cccc(C2c3sc4ccc(Cl)cc4c3N=C3NN=C(c4cccc(F)c4)N32)c1 (stereo not drawn): class 1

I'd appreciate it if you could check whether O=C1/C(=C\c2ccc3ccccc3c2)Sc2ccc(Cl)cc21 has IC50 smaller than 30 µg/mL. class 0

I'd appreciate it if you could check whether Cc1cc(C)n(C2=Nc3c(sc4ccc(Cl)cc34)C(c3cccc([N+](=O)[O-])c3)N2)n1 (stereo not drawn) has IC50 smaller than 30 µg/mL. class 1

I'd appreciate it if you could check whether NNC1=Nc2c(sc3ccc(Cl)cc23)C(c2cccc([N+](=O)[O-])c2)N1 (stereo not drawn) has IC50 smaller than 30 µg/mL. class 1

I'd appreciate it if you could check whether O=C1SC2=Nc3c(sc4ccc(Cl)cc34)C(c3ccc4ccccc4c3)N2C1=O (stereo not drawn) has IC50 smaller than 30 µg/mL. class 0

I'd appreciate it if you could check whether O=[N+]([O-])c1cccc(C2NC(N3CCOCC3)=Nc3c2sc2ccc(Cl)cc32)c1 (stereo not drawn) has IC50 smaller than 30 µg/mL. class 1

I'd appreciate it if you could check whether NC(=O)CSC1=Nc2c(sc3ccc(Cl)cc23)C(c2cccc([N+](=O)[O-])c2)N1 (stereo not drawn) has IC50 smaller than 30 µg/mL. class 0

I'd appreciate it if you could check whether N#Cc1cnn(C2=Nc3c(sc4ccc(Cl)cc34)C(c3cccc([N+](=O)[O-])c3)N2)c1N (stereo not drawn) has IC50 smaller than 30 µg/mL. class 0

I'd appreciate it if you could check whether O=c1[nH]c(=S)[nH]c(-c2ccccc2)c1Cc1c(O)ccc2ccccc12 has IC50 smaller than 30 µg/mL. class 0

###

tested on: SF-268; assay: Growth inhibition of human SF268 cells at 10^-5 M incubated for 48 hrs by sulforhodamine B assay; format: functional; conditions: SF-268, 48 h, read-out: GI
observed-property: inhibition of growth at 10 µM (%)
Give bare numbers, in %.

Here are 5 compounds together with their reported answers.
* S=C1Nc2c(sc3ccc(Cl)cc23)C(c2ccc3ccccc3c2)N1 (stereo not drawn) | 10.3
* N=C1Nc2c(sc3ccc(Cl)cc23)C(c2ccc3ccccc3c2)N1 (stereo not drawn) | -5.53
* O=C1Nc2c(sc3ccc(Cl)cc23)C(c2ccccc2O)N1 (stereo not drawn) | 7.91
* N=C1Nc2c(sc3ccc(Cl)cc23)C(c2ccccc2O)N1 (stereo not drawn) | 6.19
* Oc1ccccc1C1NC(=S)Nc2c1sc1ccc(Cl)cc21 (stereo not drawn) | 8.44

Batch lookup, inhibition of growth at 10 µM per entry.
1. O=C1/C(=C\c2ccccc2O)Sc2ccc(Cl)cc21
2. CCOC(=O)CSC1=Nc2c(sc3ccc(Cl)cc23)C(c2cccc([N+](=O)[O-])c2)N1 (stereo not drawn)
3. O=C1Nc2c(sc3ccc(Cl)cc23)C(c2cccc([N+](=O)[O-])c2)N1 (stereo not drawn)
4. NC(=O)CSC1=Nc2c(sc3ccc(Cl)cc23)C(c2cccc([N+](=O)[O-])c2)N1 (stereo not drawn)
5. N=C1Nc2c(sc3ccc(Cl)cc23)C(c2cccc(Br)c2)N1 (stereo not drawn)

5.86
3.8
6.35
-4.2
6.03

###

tested on: HCC 2998; test: Growth inhibition of human HCC2998 cells at 10^-5 M incubated for 48 hrs by sulforhodamine B assay; format: functional; settings: HCC 2998, 48 h, read-out: GI
Param threshold (-10%) applies to inhibition of growth at 10 µM; output true when value >= threshold, false when value < threshold.

- O=C1Nc2c(sc3ccc(Cl)cc23)C(c2cccc([N+](=O)[O-])c2)N1 (centres undefined): true

Tell me whether inhibition of growth at 10 µM is at least -10% here: O=C1/C(=C\c2cccc([N+](=O)[O-])c2)Sc2ccc(Cl)cc21 false

Tell me whether inhibition of growth at 10 µM is at least -10% here: O=C1Nc2c(sc3ccc(Cl)cc23)C(c2cccc(Br)c2)N1 (centres undefined) false

Tell me whether inhibition of growth at 10 µM is at least -10% here: O=[N+]([O-])c1cccc(C2c3sc4ccc(Cl)cc4c3N=C3NN=C(c4cccc(F)c4)N32)c1 (centres undefined) true

###

test system: HCT-116; assay: Growth inhibition of human HCT116 cells at 10^-5 M incubated for 48 hrs by sulforhodamine B assay; format: functional; conditions: HCT-116, 48 h, read-out: GI
observed-property: inhibition of growth at 10 µM (%)
Numbers only, in %.

- O=[N+]([O-])c1cccc(C2c3sc4ccc(Cl)cc4c3N=C3NN=CN32)c1 (stereo not given): 3.22

Batch lookup, inhibition of growth at 10 µM per entry.
1. O=[N+]([O-])c1cccc(C2NC(N3CCOCC3)=Nc3c2sc2ccc(Cl)cc32)c1 (stereo not given)
2. Oc1ccccc1C1NC(=S)Nc2c1sc1ccc(Cl)cc21 (stereo not given)
3. O=C1CSC2=Nc3c(sc4ccc(Cl)cc34)C(c3ccc4ccccc4c3)N12 (stereo not given)
4. S=C1Nc2c(sc3ccc(Cl)cc23)C(c2cccc(Br)c2)N1 (stereo not given)
5. O=C1CC(=O)N(C2=Nc3c(sc4ccc(Cl)cc34)C(c3cccc([N+](=O)[O-])c3)N2)N1 (stereo not given)
6. O=C1SC2=Nc3c(sc4ccc(Cl)cc34)C(c3ccc4ccccc4c3)N2C1=O (stereo not given)

[6.8, 8.97, -7.67, 10.9, 0.7, 23.4]

Batch lookup, inhibition of growth at 10 µM per entry.
1. CCOC(=O)CSC1=Nc2c(sc3ccc(Cl)cc23)C(c2cccc([N+](=O)[O-])c2)N1 (stereo not given)
2. N=C1Nc2c(sc3ccc(Cl)cc23)C(c2ccc3ccccc3c2)N1 (stereo not given)
3. N=C1Nc2c(sc3ccc(Cl)cc23)C(c2cccc([N+](=O)[O-])c2)N1 (stereo not given)

3.88
10.6
2.65

All figures here come from ChEMBL document CHEMBL4414672.
